Tested on: NCI-H522 lung
Test: NCI tumour cell line growth inhibition, 48 h
Where a SMILES comes first, the peptide text is derived from it. Bridges are numbered along the chain shown (N, C = ends).
Below: a set of entries, each annotated with reported TGI.
Give just the numeric value; µM need not be written.

Reported TGI, compound COc1ccc(Cl)cc1Nc1nc(C(F)(F)F)ccc1C(=O)N/N=C/c1ccccc1Cl : ____
16

Need TGI, item N#Cc1ccc(O)c(C2=NCC(c3ccc(-c4ccccc4)cc3)O2)c1 (centres undefined)
10.6

TGI for CCC(C)C1NC(=O)C(CC(C)C)NC(=O)C(C(C)C)NC(=O)C2CSSCC(NC1=O)C(=O)N2 (centres undefined) (cyclo(CCVLI); disulfide 1-2; configuration not given here) ?
0.355

Look up TGI: COc1cc(Cn2c3ccccc3c3cc(C)cc(OC)c32)cc2c1[nH]c1ccccc12
21

Requested read-out: TGI. Entry: Cn1c2ccccc2c(=NNc2ccc(S(=O)(=O)N=C(N)N)cc2)c2ccccc21
11

Given CCCCNP1(NCCCC)=NP(NCCCC)(NCCCC)=NP(NCCCC)(NCCCC)=NP(NCCCC)(NCCCC)=N1 , state its recorded TGI.
4.3

Next:
Returns the measured TGI for the input compound. Input: O=C(Nc1cccc(-n2ccc3c(NC(=O)c4ccccc4)nccc32)c1)c1ccc(Cl)c(Cl)c1
1.22

State the recorded TGI for this entry: CC(=O)c1ccc(Nc2nc3ccccc3c3occc23)cc1
9.12

What does the record list as TGI for CN(C)c1ccc2cc3c(cc2c1)Oc1ccccc1N3.[Cl][Zn][Cl] ?
4.94

Origin of the recorded values: PubChem BioAssay (NCI)
